All values here come from ChEMBL document CHEMBL1629713.

EXPERIMENT: Ratio of drug level in brain to plasma in rat at 5.7 mg/kg, po
Type: ADME, organism-based
Design: dose 5.7 mg/kg, route oral
CONDITION INFO: read-out: BPR
PROPERTY: Kp
Form rule: numeric answer, no unit written next to it.

Input CC(C)Oc1ccc(S(C)(=O)=O)cc1C(=O)N1Cc2ccc(C3CCOCC3)cc2C1 . Output Kp: 0.6

----------
EXPERIMENT: Drug level in rat plasma at 10 mg/kg after 3 hrs
Assay type: ADME, organism-based
Set-up: dose 10 mg/kg
PROPERTY: concentration at 3 h (ng/mL)

CHEMICAL STRING: C[C@H](Oc1ccc(S(C)(=O)=O)cc1C(=O)N1Cc2ccc(C3CCOCC3)cc2C1)C(F)(F)F
concentration at 3 h / ng/mL: 480

I. CC(C)Oc1ccc(S(C)(=O)=O)cc1C(=O)N1Cc2ccc(C3CCOCC3)cc2C1
II. C[C@H](Oc1ccc(S(C)(=O)=O)cc1C(=O)N1Cc2cc(C(F)(F)F)cnc2C1)C(F)(F)F
input: Could you tell me which of I and II has the lower concentration at 3 h reading? Respond with the label that goes with your answer.
output: I

----------
EXPERIMENT: Aqueous solubility of the compound by lyophilisate solubility assay
Assay type: physicochemical
CONDITION INFO: buffer
PROPERTY: solubility (µg/mL)

Sample answers from the record:
CHEMICAL STRING: C[C@H](Oc1ccc(S(C)(=O)=O)cc1C(=O)N1Cc2ccc(C(F)(F)F)nc2C1)C(F)(F)F
UNIT SYMBOL: µg/mL
solubility: 429
--
CHEMICAL STRING: CS(=O)(=O)c1ccc(OCCC(F)(F)F)c(C(=O)N2Cc3cc(C(F)(F)F)cnc3C2)c1
UNIT SYMBOL: µg/mL
solubility: 513
--
CHEMICAL STRING: C[C@H](Oc1ccc(S(C)(=O)=O)cc1C(=O)N1Cc2ccc(C(F)(F)F)cc2C1)C(F)(F)F
UNIT SYMBOL: µg/mL
solubility: 1

1. CS(=O)(=O)c1ccc(N2CCOCC2)c(C(=O)N2Cc3cc(C(F)(F)F)cnc3C2)c1
2. C[C@H](Oc1ccc(S(C)(=O)=O)cc1C(=O)N1Cc2cc(C(F)(F)F)cnc2C1)C(F)(F)F
3. CS(=O)(=O)c1ccc(-c2ccc(F)c(F)c2)c(C(=O)N2Cc3cc(C(F)(F)F)cnc3C2)c1
4. C[C@H](Oc1ccc(S(C)(=O)=O)cc1C(=O)N1Cc2ccc(C3CCOCC3)cc2C1)C(F)(F)F
input: # ascending order, key=solubility Response field: labels, in requested order.
output: 3, 4, 2, 1
(3: 42 µg/mL, 4: 76 µg/mL, 2: 280 µg/mL, 1: 495 µg/mL)

----------
EXPERIMENT: Drug level in rat brain at 10 mg/kg after 3 hrs
Type: ADME, organism-based
Design: dose 10 mg/kg
CONDITION INFO: read-out: Drug uptake
PROPERTY: concentration at 3 h (ng/mL)

CHEMICAL STRING: CC(C)Oc1ccc(S(C)(=O)=O)cc1C(=O)N1Cc2ccc(C3CCOCC3)cc2C1
RECORDED VALUE: 159

I. C[C@H](Oc1ccc(S(C)(=O)=O)cc1C(=O)N1Cc2cc(C(F)(F)F)cnc2C1)C(F)(F)F
II. C[C@H](Oc1ccc(S(C)(=O)=O)cc1C(=O)N1Cc2ccc(C3CCOCC3)cc2C1)C(F)(F)F
input: Please state the entry with greater concentration at 3 h among I and II . To answer, give the label that identifies your chosen option.
output: I

----------
EXPERIMENT: Ratio of drug level in brain to plasma in rat
Format: ADME
CONDITION INFO: read-out: BPR
PROPERTY: Kp
Please state the value as a number alone, without comment.

// Kp value for C[C@H](Oc1ccc(S(C)(=O)=O)cc1C(=O)N1Cc2ccc(C(F)(F)F)cc2C1)C(F)(F)F : 1

----------
EXPERIMENT: Volume of distribution in rat
Type: ADME, organism-based
CONDITION INFO: in vivo
PROPERTY: Vd (L/kg)
Answer format: numeric, L/kg implied, no suffix.

Per the records, this compound ( C[C@H](Oc1ccc(S(C)(=O)=O)cc1C(=O)N1Cc2ccc(C(F)(F)F)cc2C1)C(F)(F)F ) has Vd equal to 2.9

----------
EXPERIMENT: Terminal half life in rat at 6.8 mg/kg, po
Type: ADME, organism-based
Parameters: dose 6.8 mg/kg, route oral
CONDITION INFO: in vivo, read-out: beta t1/2 (converted)
PROPERTY: half-life (h)
Output spec: scalar in h, unitless text.

Record summary for C[C@H](Oc1ccc(S(C)(=O)=O)cc1C(=O)N1Cc2ccc(C3CCOCC3)cc2C1)C(F)(F)F : reported half-life = 3.2

----------
EXPERIMENT: Volume of distribution at steady state in rat at 1.7 mg/kg, iv
Type: ADME, organism-based
Set-up: dose 1.7 mg/kg, route intravenous
CONDITION INFO: in vivo, read-out: Vdss
PROPERTY: Vd (L/kg)
Please respond with the number in L/kg and leave the unit unwritten.

Value of measured Vd for the entry CC(C)Oc1ccc(S(C)(=O)=O)cc1C(=O)N1Cc2ccc(C3CCOCC3)cc2C1 : 2

----------
EXPERIMENT: Permeability of the compound by PAMPA
Format: ADME
CONDITION INFO: read-out: permeability
PROPERTY: Papp (×10⁻⁶ cm/s)

COMPOUND: CS(=O)(=O)c1ccc(OCc2ccccc2)c(C(=O)N2Cc3cc(C(F)(F)F)cnc3C2)c1
Papp, ×10⁻⁶ cm/s: 0.8
//
COMPOUND: C[C@H](Oc1ccc(S(C)(=O)=O)cc1C(=O)N1Cc2cnc(C(F)(F)F)cc2C1)C(F)(F)F
Papp, ×10⁻⁶ cm/s: 3.9
//
COMPOUND: COc1ccc2c(c1)CN(C(=O)c1cc(S(C)(=O)=O)ccc1O[C@@H](C)C(F)(F)F)C2
Papp, ×10⁻⁶ cm/s: 2.7
//
COMPOUND: CC(C)Oc1ccc(S(C)(=O)=O)cc1C(=O)N1Cc2ccc(C3CCOCC3)cc2C1
Papp, ×10⁻⁶ cm/s: 4.2
//
COMPOUND: C[C@H](Oc1ccc(S(C)(=O)=O)cc1C(=O)N1Cc2ccc(-c3ccncc3)cc2C1)C(F)(F)F
Papp, ×10⁻⁶ cm/s: 4.2
//
COMPOUND: C[C@H](Oc1ccc(S(C)(=O)=O)cc1C(=O)N1Cc2ccc(C3CCOCC3)cc2C1)C(F)(F)F
Papp, ×10⁻⁶ cm/s: 3.3

1. Cc1cccc2c1CN(C(=O)c1cc(S(C)(=O)=O)ccc1O[C@@H](C)C(F)(F)F)C2
2. C[C@H](Oc1ccc(S(C)(=O)=O)cc1C(=O)N1Cc2cccc(C#N)c2C1)C(F)(F)F
input: // select label with min value of measured Papp from [ 1 , 2 ] Label of pick, please.
output: 2
(2: 0.8 ×10⁻⁶ cm/s, 1: 4.2 ×10⁻⁶ cm/s)

a. COc1cccc2c1CN(C(=O)c1cc(S(C)(=O)=O)ccc1O[C@@H](C)C(F)(F)F)C2
b. C[C@H](Oc1ccc(S(C)(=O)=O)cc1C(=O)N1Cc2ccc(N3CCN(C)CC3)cc2C1)C(F)(F)F
c. C[C@H](Oc1ccc(S(C)(=O)=O)cc1C(=O)N1Cc2ccc(N3CCCC3)cc2C1)C(F)(F)F
d. C[C@H](Oc1ccc(S(C)(=O)=O)cc1C(=O)N1Cc2ccc(-c3ccccc3)cc2C1)C(F)(F)F
input: Task for the reader: rank each entry by its Papp, from the minimum upward. // rank by listing labels in the order requested
output: c, b, d, a
(c: 0.8 ×10⁻⁶ cm/s, b: 1.5 ×10⁻⁶ cm/s, d: 2.6 ×10⁻⁶ cm/s, a: 4.8 ×10⁻⁶ cm/s)

I. CC(C)Oc1ccc(S(C)(=O)=O)cc1C(=O)N1Cc2cc(C(F)(F)F)cnc2C1
II. C[C@H](Oc1ccc(S(C)(=O)=O)cc1C(=O)N1Cc2ccc(-c3ccccn3)cc2C1)C(F)(F)F
input: Which entry shows the lesser value of Papp here, I or II ? Answer = label.
output: II
(II: 0.8 ×10⁻⁶ cm/s, I: 4.1 ×10⁻⁶ cm/s)

a. CC(C)COc1ccc(S(C)(=O)=O)cc1C(=O)N1Cc2cc(C(F)(F)F)cnc2C1
b. C[C@H](Oc1ccc(S(C)(=O)=O)cc1C(=O)N1Cc2ccccc2C1)C(F)(F)F
c. CS(=O)(=O)c1ccc(-c2ccc(F)cc2)c(C(=O)N2Cc3ccc(C4CCOCC4)cc3C2)c1
input: # desc sort on Papp across 3 compounds Record the ranking as a list of labels in the requested order.
output: a, c, b
(a: 5.5 ×10⁻⁶ cm/s, c: 1.4 ×10⁻⁶ cm/s, b: 0.8 ×10⁻⁶ cm/s)

----------
EXPERIMENT: Intrinsic clearance in human liver microsomes assessed per mg of protein
Assay type: ADME, Microsome
PROPERTY: microsomal CLint (µL/min/mg)
# value in µL/min/mg; strip the unit string

response.value for C[C@H](Oc1ccc(S(C)(=O)=O)cc1C(=O)N1Cc2ccc(Cl)cc2C1)C(F)(F)F (field: microsomal CLint) = 2.4
